Data origin, for the record: patent US20040209915A1

Target: human β2 adrenergic receptor (Homo sapiens)
Construct: expressed in transfected cells
Sequence (P07550 whole entry): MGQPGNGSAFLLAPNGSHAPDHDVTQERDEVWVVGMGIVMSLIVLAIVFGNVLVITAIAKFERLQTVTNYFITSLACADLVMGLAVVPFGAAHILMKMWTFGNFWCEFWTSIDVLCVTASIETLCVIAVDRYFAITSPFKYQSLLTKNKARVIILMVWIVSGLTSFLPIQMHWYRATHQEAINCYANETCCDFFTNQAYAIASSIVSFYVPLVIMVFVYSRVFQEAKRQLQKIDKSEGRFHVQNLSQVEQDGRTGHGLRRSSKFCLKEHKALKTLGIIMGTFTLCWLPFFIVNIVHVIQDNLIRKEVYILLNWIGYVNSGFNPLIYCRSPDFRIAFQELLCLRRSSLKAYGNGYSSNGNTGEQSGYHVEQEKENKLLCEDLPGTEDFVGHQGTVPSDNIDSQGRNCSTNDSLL
Test: Whole-cell cAMP Flashplate assay with lung epithelial cell line (BEAS-2B) endogenously expressing human β2 adrenergic receptor
Type: cell-based
Details: BEAS-2B cells
Assay readout: EC50

Compound | Assay readout | Result
O=C(CCN1CCC(OC(=O)Nc2ccccc2-c2ccccc2)CC1)NCCCCCNC[C@H](O)c1ccc(O)c2[nH]c(=O)ccc12 [Example 6, Ditrifluoroacetate] | EC50 | < 0.01 µM
